# experimental-target: PDE6D (Homo sapiens, UniProt O43924+Q96SW2)
# Construct: endogenous in cells; host or cells: MV-4-11
# Sequence (O43924 whole entry, one chain of several): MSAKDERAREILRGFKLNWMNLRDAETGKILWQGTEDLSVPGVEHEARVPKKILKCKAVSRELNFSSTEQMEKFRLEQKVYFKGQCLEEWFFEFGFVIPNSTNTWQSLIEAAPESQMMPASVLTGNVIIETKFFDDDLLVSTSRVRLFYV
# test-method-notes: Western blot, degradation of cellular PDE6D in MV-4-11 cells
# Format: cell-based
# recorded-conditions: MV4-11; tested at 1 μM, MV-4-11 cells, 6-8 hours; read-out: % Degradation compared to DMSO, PDE6D
property-name: Dmax at 1 µM

[ask] Which Dmax at 1 µM value is on record for O=C1CCC(N2Cc3c(cc(F)cc3C(F)F)C2=O)C(=O)N1 (centres unmarked) ?
[reply] 50 to 75%

[ask] Which Dmax at 1 µM value is on record for CC1(C)CCC(c2cc(F)cc3c2CN(C2CCC(=O)NC2=O)C3=O)CC1 (centres unmarked) ?
[reply] ≥ 75%

[ask] Which Dmax at 1 µM value is on record for O=C1CCC(N2Cc3c(cc(F)cc3C3CCOCC3)C2=O)C(=O)N1 (centres unmarked) ?
[reply] ≥ 75%

[ask] Which Dmax at 1 µM value is on record for O=C1CCC(N2C(=O)c3cc(F)cc(C4CCCC4)c3C2=O)C(=O)N1 (centres unmarked) ?
[reply] ≥ 75%

[ask] Which Dmax at 1 µM value is on record for Cc1c(F)cc2c(c1C1CCCC1)CN(C1CCC(=O)NC1=O)C2=O (centres unmarked) ?
[reply] ≥ 75%

###

# experimental-target: CK1α (Homo sapiens, UniProt P48729+Q96SW2)
# Construct: endogenous in cells; host or cells: MV-4-11
# Sequence (P48729 whole entry): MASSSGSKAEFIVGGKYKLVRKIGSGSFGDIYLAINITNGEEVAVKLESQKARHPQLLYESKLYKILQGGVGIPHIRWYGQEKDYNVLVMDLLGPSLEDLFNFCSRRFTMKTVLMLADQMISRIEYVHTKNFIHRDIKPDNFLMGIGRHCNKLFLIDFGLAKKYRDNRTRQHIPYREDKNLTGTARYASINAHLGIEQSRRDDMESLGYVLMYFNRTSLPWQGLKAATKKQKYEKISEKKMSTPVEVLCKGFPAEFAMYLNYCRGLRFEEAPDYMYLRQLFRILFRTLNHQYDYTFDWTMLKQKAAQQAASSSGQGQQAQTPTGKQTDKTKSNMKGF
# Sequence (Q96SW2 whole entry): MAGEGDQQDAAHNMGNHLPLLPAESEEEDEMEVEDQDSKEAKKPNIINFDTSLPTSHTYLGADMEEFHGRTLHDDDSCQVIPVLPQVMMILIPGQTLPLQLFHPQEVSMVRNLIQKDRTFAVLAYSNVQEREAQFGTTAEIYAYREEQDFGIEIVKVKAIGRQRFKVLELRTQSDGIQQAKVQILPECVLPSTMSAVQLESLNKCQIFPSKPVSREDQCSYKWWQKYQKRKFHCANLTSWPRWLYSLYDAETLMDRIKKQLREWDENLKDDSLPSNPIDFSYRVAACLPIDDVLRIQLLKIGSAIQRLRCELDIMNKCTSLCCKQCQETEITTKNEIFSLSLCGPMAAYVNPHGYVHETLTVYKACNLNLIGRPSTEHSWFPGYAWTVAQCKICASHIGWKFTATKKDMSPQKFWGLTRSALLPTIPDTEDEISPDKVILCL
# Sequence (Q16531 whole entry partner): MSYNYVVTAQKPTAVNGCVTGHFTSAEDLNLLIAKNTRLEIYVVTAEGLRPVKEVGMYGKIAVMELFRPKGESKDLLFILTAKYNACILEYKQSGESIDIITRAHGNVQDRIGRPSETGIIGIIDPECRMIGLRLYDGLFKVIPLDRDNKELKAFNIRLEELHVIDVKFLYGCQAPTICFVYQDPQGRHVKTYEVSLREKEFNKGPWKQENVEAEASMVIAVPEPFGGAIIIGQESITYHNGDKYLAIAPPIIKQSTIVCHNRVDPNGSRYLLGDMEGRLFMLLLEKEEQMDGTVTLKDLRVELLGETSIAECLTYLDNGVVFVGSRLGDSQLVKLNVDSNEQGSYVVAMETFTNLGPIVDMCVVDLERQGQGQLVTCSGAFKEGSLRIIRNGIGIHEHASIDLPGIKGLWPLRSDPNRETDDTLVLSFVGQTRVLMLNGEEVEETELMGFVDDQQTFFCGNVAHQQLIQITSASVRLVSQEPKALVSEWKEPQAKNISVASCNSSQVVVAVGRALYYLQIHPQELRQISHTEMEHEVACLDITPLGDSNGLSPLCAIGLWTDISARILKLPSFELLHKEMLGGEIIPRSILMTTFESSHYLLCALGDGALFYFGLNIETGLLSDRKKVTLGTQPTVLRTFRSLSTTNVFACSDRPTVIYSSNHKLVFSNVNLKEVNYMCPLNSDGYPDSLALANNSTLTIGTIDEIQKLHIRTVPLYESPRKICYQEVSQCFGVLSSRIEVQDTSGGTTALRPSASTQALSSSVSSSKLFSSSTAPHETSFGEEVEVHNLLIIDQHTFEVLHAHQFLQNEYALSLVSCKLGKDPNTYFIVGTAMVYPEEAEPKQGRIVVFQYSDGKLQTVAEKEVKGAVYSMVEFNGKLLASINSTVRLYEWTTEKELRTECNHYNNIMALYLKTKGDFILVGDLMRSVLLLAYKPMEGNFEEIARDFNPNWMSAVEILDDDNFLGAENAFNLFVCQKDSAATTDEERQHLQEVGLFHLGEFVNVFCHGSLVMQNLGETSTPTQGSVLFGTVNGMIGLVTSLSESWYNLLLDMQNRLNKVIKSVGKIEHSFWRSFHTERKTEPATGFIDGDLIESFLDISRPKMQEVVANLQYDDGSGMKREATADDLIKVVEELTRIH
# test-method-notes: Western blot, degradation of cellular CK1α in MV-4-11 cells
# Type: cell-based
# recorded-conditions: MV4-11, tested at 1 μM, 6-8 hours, read-out: % Degradation compared to DMSO, CK1α
Would you kindly list Dmax at 1 µM for each of these compounds?

[ask] Which Dmax at 1 µM value is on record for CC1CC(=O)NC(=O)C1N1Cc2c(cc(F)cc2C2CCCC2)C1=O (stereo not drawn) ?
[reply] 25 to 50%

[ask] Which Dmax at 1 µM value is on record for O=C1CCC(N2Cc3c(cc(C(F)(F)F)cc3C3CCCC3)C2=O)C(=O)N1 (stereo not drawn) ?
[reply] < 25%

[ask] Which Dmax at 1 µM value is on record for O=C1CC(N2Cc3c(cc(F)cc3C3CCCC3)C2=O)C(=O)N1 (stereo not drawn) ?
[reply] < 25%

[ask] Which Dmax at 1 µM value is on record for O=C1CCC(N2Cc3c(ccc(F)c3C3CCCC3)C2=O)C(=O)N1 (stereo not drawn) ?
[reply] < 25%

[ask] Which Dmax at 1 µM value is on record for CCC1(N2Cc3c(cc(F)cc3C3CCCC3)C2=O)CCC(=O)NC1=O (stereo not drawn) ?
[reply] < 25%

[ask] Which Dmax at 1 µM value is on record for O=C1CCC(N2Cc3c(cc(F)cc3C3CCC(F)(F)CC3)C2=O)C(=O)N1 (stereo not drawn) ?
[reply] 25 to 50%

###

# System: TNFα
# test-method-notes: TNFα inhibition, LPS-induced PBMCs or CD14+ monocytes, Meso Scale assay
# Format: cell-based
# recorded-conditions: tested at 10 μM, LPS 100 ng/mL 18-24 h; read-out: % Inhibition compared to DMSO, TNFα
property-name: inhibition at 10 µM

[ask] Which inhibition at 10 µM value is on record for C[C@@H](c1cccc2c1CN(C1CCC(=O)NC1=O)C2=O)C(F)(F)F (some centres unmarked) ?
[reply] 10 to 25%

[ask] Which inhibition at 10 µM value is on record for O=C1CCC(N2Cc3c(ccc(F)c3C3CCCC3)C2=O)C(=O)N1 (centres unmarked) ?
[reply] < 10%

[ask] Which inhibition at 10 µM value is on record for O=C1CCC(N2Cc3c(cc(F)cc3C3CCC(F)(F)CC3)C2=O)C(=O)N1 (centres unmarked) ?
[reply] < 10%

[ask] Which inhibition at 10 µM value is on record for O=C1CC(N2Cc3c(cc(F)cc3C3CCCC3)C2=O)C(=O)N1 (centres unmarked) ?
[reply] < 10%

[ask] Which inhibition at 10 µM value is on record for C[C@H](c1cc(F)cc2c1CN(C1CCC(=O)NC1=O)C2=O)C(F)(F)F (some centres unmarked) ?
[reply] 25 to 50%
